# ASSAY_SYSTEM: Cytochrome P450 17 (Steroid 17-alpha-hydroxylase/17,20 lyase) (Rattus norvegicus)
# Sequence (P11715 whole entry): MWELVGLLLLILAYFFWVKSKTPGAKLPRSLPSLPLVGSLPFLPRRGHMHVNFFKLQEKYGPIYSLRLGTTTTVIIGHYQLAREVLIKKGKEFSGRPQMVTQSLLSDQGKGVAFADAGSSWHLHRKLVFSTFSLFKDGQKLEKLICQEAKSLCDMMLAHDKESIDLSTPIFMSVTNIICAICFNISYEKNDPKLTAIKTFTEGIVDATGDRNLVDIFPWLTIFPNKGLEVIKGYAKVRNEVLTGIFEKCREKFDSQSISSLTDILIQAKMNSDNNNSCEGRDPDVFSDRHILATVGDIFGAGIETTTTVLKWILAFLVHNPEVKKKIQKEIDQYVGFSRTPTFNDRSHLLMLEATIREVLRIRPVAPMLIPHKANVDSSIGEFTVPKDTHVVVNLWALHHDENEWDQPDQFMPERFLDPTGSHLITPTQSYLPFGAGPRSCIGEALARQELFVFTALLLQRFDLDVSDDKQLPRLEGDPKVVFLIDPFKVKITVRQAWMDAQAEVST
# TEST: in vitro
PROPERTY_LABEL: inhibition at 125 µM (%)

INSERT INTO results (compound, property_label, reported_measurement) VALUES
  ('COc1ccc2c(c1)C1C(CC2)C1c1ccncc1 (single isomer, unassigned; (+))', 'inhibition at 125 µM', 54),
  ('COc1cccc2c1CCC1C(c3ccncc3)C21 (stereo not given)', 'inhibition at 125 µM', 51),
  ('c1ccc2c(c1)CCC1C(c3ccncc3)C21 (stereo not given)', 'inhibition at 125 µM', 36),
  ('Oc1ccc2c(c1)CCC1C(c3ccncc3)C21 (stereo not given)', 'inhibition at 125 µM', 41),
  ('COc1ccc2c(c1)C1C(CC2)C1(C)c1ccncc1 (stereo not given)', 'inhibition at 125 µM', 68);

----------
# ASSAY_SYSTEM: Cytochrome P450 11B2, mitochondrial (Rattus norvegicus, UniProt P30099)
# Sequence (P30099 whole entry): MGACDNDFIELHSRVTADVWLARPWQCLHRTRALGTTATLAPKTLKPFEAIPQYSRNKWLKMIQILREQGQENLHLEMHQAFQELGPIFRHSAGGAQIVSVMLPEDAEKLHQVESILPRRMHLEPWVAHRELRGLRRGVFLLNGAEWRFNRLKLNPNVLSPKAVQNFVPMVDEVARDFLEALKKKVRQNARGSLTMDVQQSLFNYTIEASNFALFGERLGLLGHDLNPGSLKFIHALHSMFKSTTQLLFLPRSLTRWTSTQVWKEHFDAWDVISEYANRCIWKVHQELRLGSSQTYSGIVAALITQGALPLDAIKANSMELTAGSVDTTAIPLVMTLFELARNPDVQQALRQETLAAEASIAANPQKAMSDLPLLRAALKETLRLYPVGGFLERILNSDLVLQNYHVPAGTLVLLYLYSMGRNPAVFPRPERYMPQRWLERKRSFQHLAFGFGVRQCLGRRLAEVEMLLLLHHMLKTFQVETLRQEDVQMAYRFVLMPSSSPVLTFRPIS
pIC50: −log10 of the molar value.
PROPERTY_LABEL: pIC50

INSERT INTO measurements (compound, property_label, reported_measurement) VALUES
  ('CCC1(c2ccc(N)cc2)CCC(=O)NC1=O (stereo unspecified) [AMINOGLUTETHIMIDE]', 'pIC50', 4.30);
